# Km values compiled below
method: Michaelis behavior of the enzyme (PicK/6-His)
Type: ADME
In your response, the unit should come after the numeric value.

INSERT INTO results (line_notation, value_reported) VALUES
  ('CC[C@H]1OC(=O)[C@H](C)[C@@H](O[C@@H]2O[C@H](C)C[C@H](N(C)C)[C@H]2O)[C@@H](C)C[C@@H](C)C(=O)/C=C/[C@H]1C', '130 µM');

Query compound follows.
Look up Km of CC[C@H]1OC(=O)[C@H](C)C(=O)[C@H](C)[C@@H](O[C@@H]2O[C@H](C)C[C@H](N(C)C)[C@H]2O)[C@@H](C)C[C@@H](C)C(=O)/C=C/[C@H]1C and report it.
88 µM

----------
method: Ratio of kcat to Km was evaluated.
Assay type: ADME
measured attribute: kcat/Km
In your response, the unit should come after the numeric value.

INSERT INTO results (line_notation, measured_attribute, value_reported) VALUES
  ('CC[C@H]1OC(=O)[C@H](C)C(=O)[C@H](C)[C@@H](O[C@@H]2O[C@H](C)C[C@H](N(C)C)[C@H]2O)[C@@H](C)C[C@@H](C)C(=O)/C=C/[C@H]1C', 'kcat/Km', '23000 M⁻¹ s⁻¹');

Query molecule follows.
Look up kcat/Km of CC[C@H]1OC(=O)[C@H](C)[C@@H](O[C@@H]2O[C@H](C)C[C@H](N(C)C)[C@H]2O)[C@@H](C)C[C@@H](C)C(=O)/C=C/[C@H]1C and report it.
8000 M⁻¹ s⁻¹
